- System: MDA-MB-435
- PROTOCOL TEXT: NCI tumour cell line growth inhibition, 48 h
Give measured TGI for each item. Keep answers brief.

Answered cases to consult:
> print(dat)
                                   compound  endpoint.label  measured.result
1  COC(=O)C1(C(=O)OC)N=C(C)OC1c1ccoc1 (stereo not given)             TGI         > 100 µM
2  N#Cc1c(N)c2c(c(-c3ccccc3)c1-c1ccccc1)C(=O)N(NC(=S)Nc1ccccc1)C2=O             TGI         > 100 µM
3      NCC(O)CSP(=O)(O)O (stereo not given)             TGI         > 100 µM

Take each entry in turn and give its TGI.
1. CN(C)c1ccc(N=Nc2ccc(Br)cn2)c(O)c1
2. Nc1nnnn1NC(=O)NCCCl

Ans:
> 100 µM
> 10 µM

* * *

Give measured TGI for each item. Keep answers brief.
- Tested on: TK-10 renal
- PROTOCOL TEXT: NCI tumour cell line growth inhibition, 48 h

Answered cases to consult:
COMPOUND	MEASURED RESULT
COc1ccc(N2CCOCC2)cc1	> 100 µM
CC(=O)O[C@H]1[C@@H]2OC(=O)C3(CC3)C2C[C@H]2O[C@]2(C)CC/C=C(\C)CCC[C@@H]1C (some centres undefined)	46.9 µM

Take each entry in turn and give its TGI.
1. CCc1cccc(C)c1NC(=O)CCc1nnc(SC)o1
2. CCCCCCCCCOc1c(OC)cc(C2CC(=O)Nc3c2c(C)nn3-c2nc3ccccc3[nH]2)cc1OC (centres undefined)

Ans:
> 100 µM
3.83 µM

Take each entry in turn and give its TGI.
1. COc1ccc(N2C(=O)C3c4[nH]c5c(C)cccc5c4C4CCC(c5ccccc5)CC4C3C2=O)cc1 (centres undefined)
2. S=c1nc(COc2ccc(Cl)cc2)[nH][nH]1
3. Nc1ccc(C(=O)N/C(=C\c2cccc([N+](=O)[O-])c2)c2nc3ccccc3[nH]2)cc1
4. N#Cc1c(N)c2c(c(-c3ccccc3)c1-c1ccccc1)C(=O)N(NC(=S)Nc1ccccc1)C2=O
5. O=C(Nc1ccc(Cl)cc1)/C(=C(/[O-])c1ccc(Br)cc1)[n+]1cccc(-c2ccc(Cl)cc2)n1
6. CC(=O)OCC12C(OC(C)=O)C(=O)C3C(OC(C)=O)C14OC3(C)COC(=O)c1cccnc1C(C)C(C)C(=O)OC(C(OC(C)=O)C2OC(C)=O)C4(C)O (centres undefined)
7. CCNC(=O)OCC1C2=C(C(=O)C(C)=C(N)C2=O)N2CC3C(N3C)C12OC (centres undefined)
8. C=C[C@]1(C)C[C@@H](OC(=O)CO)[C@@]2(C)[C@H](C)CC[C@]3(CCC(=O)[C@H]32)[C@@H](C)[C@@H]1O

Ans:
1: > 100 µM; 2: > 100 µM; 3: > 100 µM; 4: > 100 µM; 5: 67.8 µM; 6: > 100 µM; 7: > 100 µM; 8: > 100 µM

Take each entry in turn and give its TGI.
1. Clc1ccc(Cc2nc3cc(Cl)ccc3o2)cc1
2. CCCCc1ccc(N2C(=O)c3cc([N+](=O)[O-])cnc3S2(=O)=O)cc1

Ans:
["> 100 µM", "> 100 µM"]
